# Test system: MDA-MB-231
# experimental-protocol: normalised viability (% of control), CellTiter-Blue; higher = more viable cells (about 100 = DMSO control)
# applied-conditions: 10000 nM; incubation time: 72 h
# maps each entry to its normalised viability
Give the value, in units of %, as a plain number.

# molecule, study-target, normalised viability, %
rows = [
    ("CN(Cc1cnc2nc(N)nc(N)c2n1)c1ccc(C(=O)N[C@@H](CCC(=O)O)C(=O)O)cc1 [Methotrexate]", "MDA-MB-231", 94.1),
    ("CC(C)(C)NC(=O)[C@H]1CC[C@H]2[C@@H]3CC[C@H]4NC(=O)C=C[C@]4(C)[C@H]3CC[C@]12C [Finasteride]", "MDA-MB-231", 122),
    ("CC(C)C[C@H](NC(=O)[C@@H](COC(C)(C)C)NC(=O)[C@H](Cc1ccc(O)cc1)NC(=O)[C@H](CO)NC(=O)[C@H](Cc1c[nH]c2ccccc12)NC(=O)[C@H](Cc1cnc[nH]1)NC(=O)[C@@H]1CCC(=O)N1)C(=O)N[C@@H](CCCNC(=N)N)C(=O)N1CCC[C@H]1C(=O)NNC(N)=O", "MDA-MB-231", 114),
    ("CO[C@@]12[C@H](COC(N)=O)C3=C(C(=O)C(C)=C(N)C3=O)N1C[C@@H]1N[C@@H]12", "MDA-MB-231", 47.3),
]

Here is the next item to consider.
Find the recorded normalised viability belonging to COc1ccc(S(=O)(=O)Nc2cccnc2Nc2ccc(O)cc2)cc1 and report it. 14.7
